study_target: KRas G12R (Homo sapiens, UniProt P01116, G12R)
Sequence (P01116 1-169 isoform P01116-2 G12R): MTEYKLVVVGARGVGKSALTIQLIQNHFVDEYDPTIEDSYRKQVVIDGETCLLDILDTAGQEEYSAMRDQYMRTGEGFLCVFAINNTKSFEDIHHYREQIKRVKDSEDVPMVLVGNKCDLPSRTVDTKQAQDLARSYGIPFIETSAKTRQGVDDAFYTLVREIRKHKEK
assay_details: biochemical
measurement_conditions: Binding to KRas (IC50 nM) G12R, TR-FRET displacement, KRas G12R
Assign IC50 to each entry below.
Kindly provide the numeric value in nM only, without the unit symbol.

Given the entry CCc1c(F)ccc2cc(O)cc(N3CCc4c(nc(OC[C@@]56CCCN5C[C@H](F)C6)nc4NCC4NC(=O)NC4=O)C3)c12 (stereo partly drawn) [Example 377] , report its measured IC50.
4

Given the entry Cc1c(F)ccc2cc(O)cc(N3CCc4c(nc(OC[C@@]56CCCN5C[C@H](F)C6)nc4N4CCCC5(CNS(=O)(=O)N5)C4)C3)c12 (stereo partly drawn) [Example 512] , report its measured IC50.
2

Given the entry CCc1c(F)ccc2cc(O)cc(N3CCc4c(nc(OC[C@@]56CCCN5C[C@H](F)C6)nc4N4CCCn5nc(CC(=O)N(C)C)cc5C4)C3)c12 [Example 317] , report its measured IC50.
4

Given the entry CCc1c(F)ccc2cc(O)cc(N3CCc4c(nc(OC[C@@]56CCCN5C[C@H](F)C6)nc4N4Cc5cn(C(=O)N(C)C)nc5CC(C)C4)C3)c12 (stereo partly drawn) [Example 422] , report its measured IC50.
3

Given the entry CCc1c(F)ccc2cc(O)cc(N3CCc4c(nc(OC[C@@]56CCCN5C[C@H](F)C6)nc4N4CCCn5nc(NC)c(OC)c5C4)C3)c12 [Example 393] , report its measured IC50.
4

====

System: ASPC1 cells
assay_details: Inhibition of KRas-mediated phosphorylation of ERK (Cisbio HTRF pERK), ASPC1 cells
Assay type: cell-based
measurement_conditions: Homo sapiens, ASPC1; single point at 100 nM; AsPC-1 cells; 3 hrs compound incubation
Assign inhibition at 0.1 µM to each entry below.
Kindly provide the numeric value in % only, without the unit symbol.

Given the entry CCc1c(F)ccc2cc(O)cc(N3CCc4c(nc(OC[C@@]56CCCN5C[C@H](F)C6)nc4N4CCCn5nc(C(=O)N6C7CCC6CC7)cc5C4)C3)c12 , report its measured inhibition at 0.1 µM.
96

Given the entry Cc1cc2[nH]ncc2c(N2CCc3c(nc(OCC4(CN(C)C)CC4)nc3N3CCC[C@]4(C3)NC(=O)NC4=O)C2)c1C , report its measured inhibition at 0.1 µM.
-6

Given the entry CCc1c(F)ccc2cc(O)cc(N3CCc4c(nc(OC[C@@]56CCCN5C[C@H](F)C6)nc4N4CCCn5nc(C(=O)N6CC[C@@H]7CC[C@H]6C7)cc5C4)C3)c12 , report its measured inhibition at 0.1 µM.
95

Given the entry CCc1c(F)ccc2cc(O)cc(N3CCc4c(nc(OC[C@@]56CCCN5C[C@H](F)C6)nc4N4CCCC5(C4)NC(=O)NC5=S)C3)c12 (stereo partly drawn) , report its measured inhibition at 0.1 µM.
-2

Given the entry O=C1CC2(CCCN(c3nc(OCC45CCCN4CCC5)nc4c3CCN(c3cc(O)cc(Cl)c3C3CC3)C4)C2)N1 (stereo not drawn) , report its measured inhibition at 0.1 µM.
-16

Given the entry CCc1c(F)ccc2cc(O)cc(N3CCc4c(nc(OC[C@@]56CCCN5C[C@H](F)C6)nc4N4CCCn5nc(C(=O)N6CC7CC6C7)cc5C4)C3)c12 , report its measured inhibition at 0.1 µM.
96

====

Assign inhibition at 0.01 µM to each entry below.
study_target: KRas G13D (Homo sapiens, UniProt P01116, G13D)
Sequence (P01116 1-169 isoform P01116-2 G13D): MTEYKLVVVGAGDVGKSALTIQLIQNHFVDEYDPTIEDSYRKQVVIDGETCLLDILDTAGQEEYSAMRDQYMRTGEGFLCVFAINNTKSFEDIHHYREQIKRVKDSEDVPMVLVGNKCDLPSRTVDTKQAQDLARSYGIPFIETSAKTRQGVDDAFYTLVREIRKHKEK
Type: binding
measurement_conditions: single point, 10 nM compound, read-out: Binding to KRas (% inhibition at 10 nM) G13D
Kindly provide the numeric value in % only, without the unit symbol.

Given the entry CCc1c(C(=O)N(C)C)nn2c1CN(c1nc(OC[C@@]34CCCN3C[C@H](F)C4)nc3c1CCN(c1cc(O)cc4ccc(F)c(CC)c14)C3)CCC2 , report its measured inhibition at 0.01 µM.
98

Given the entry CCc1c(F)ccc2cc(O)cc(N3CCc4c(nc(OC[C@@]56CCCN5C[C@H](F)C6)nc4N4CCCn5nc(C(=O)N6CC7CCC(C7)C6)cc5C4)C3)c12 , report its measured inhibition at 0.01 µM.
91

Given the entry CCNC(=O)c1cc2n(n1)CCCCN(c1nc(OC[C@@]34CCCN3C[C@H](F)C4)nc3c1CCN(c1cc(O)cc4ccc(F)c(CC)c14)C3)C2 , report its measured inhibition at 0.01 µM.
91

====

study_target: KRas G12S (Homo sapiens, UniProt P01116, G12S)
Sequence (P01116 1-169 isoform P01116-2 G12S): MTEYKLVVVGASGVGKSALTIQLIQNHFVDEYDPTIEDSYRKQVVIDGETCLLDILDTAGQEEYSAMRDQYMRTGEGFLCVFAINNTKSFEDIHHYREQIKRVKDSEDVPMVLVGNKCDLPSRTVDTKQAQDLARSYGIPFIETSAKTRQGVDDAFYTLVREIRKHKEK
Assay type: binding
measurement_conditions: single point, 10 nM compound, read-out: Binding to KRas (% inhibition at 10 nM) G12S
Assign inhibition at 0.01 µM to each entry below.
Record the result as number plus unit.

Given the entry CCc1c(F)ccc2cc(O)cc(N3CCc4c(nc(OC[C@@]56CCCN5C[C@H](F)C6)nc4N4CCCn5nc(C(=O)N6CC7CCC6CC7)cc5C4)C3)c12 [Example 339] , report its measured inhibition at 0.01 µM.
97%

Given the entry CCc1c(F)ccc2cc(O)cc(N3CCc4c(nc(OC[C@@]56CCCN5C[C@H](F)C6)nc4N4CCCn5nc(C(=O)N(C)C(C)C)cc5C4)C3)c12 [Example 381] , report its measured inhibition at 0.01 µM.
99%

Given the entry CCc1c(F)ccc2cc(O)cc(N3CCc4c(nc(OC[C@@]56CCCN5C[C@H](F)C6)nc4N4CCCn5nc(NC)c(OC)c5C4)C3)c12 [Example 393] , report its measured inhibition at 0.01 µM.
72%

Given the entry CCc1c(C(=O)N(C)C)nn2c1CN(c1nc(OC[C@@]34CCCN3C[C@H](F)C4)nc3c1CCN(c1cc(O)cc4ccc(F)c(CC)c14)C3)CCC2 [Example 372] , report its measured inhibition at 0.01 µM.
99%

Given the entry CCc1c(F)ccc2cc(O)cc(N3CCc4c(nc(OC[C@@]56CCCN5C[C@H](F)C6)nc4N4CCCC5(CC(=O)NC5=O)C4)C3)c12 (stereo partly drawn) [Example 419] , report its measured inhibition at 0.01 µM.
72%

Given the entry CCNC(=O)c1nn2c(c1Cl)CN(c1nc(OC[C@@]34CCCN3C[C@H](F)C4)nc3c1CCN(c1cc(O)cc4ccc(F)c(CC)c14)C3)CCC2 [Example 367] , report its measured inhibition at 0.01 µM.
99%

Given the entry CCc1c(F)ccc2cc(O)cc(N3CCc4c(nc(OC[C@@]56CCCN5C[C@H](F)C6)nc4N4CCCn5nc(C(=O)NC)c(C)c5C4)C3)c12 [Example 380] , report its measured inhibition at 0.01 µM.
99%

Given the entry CCc1c(F)ccc2cc(O)cc(N3CCc4c(nc(OC[C@@]56CCCN5C[C@H](F)C6)nc4N4CCCn5nc(C(=O)NCCOCCOC)cc5C4)C3)c12 [Example 374] , report its measured inhibition at 0.01 µM.
99%

Given the entry CCc1c(F)ccc2cc(O)cc(N3CCc4c(nc(OC[C@@]56CCCN5C[C@H](F)C6)nc4N4CCCn5nc(C(=O)OC)cc5C4)C3)c12 [Example 411] , report its measured inhibition at 0.01 µM.
88%

Given the entry CCc1c(F)ccc2cc(O)cc(N3CCc4c(nc(OC[C@@]56CCCN5C[C@H](F)C6)nc4N4CCCn5nc(NC(C)C)cc5C4)C3)c12 [Example 407] , report its measured inhibition at 0.01 µM.
71%

Given the entry CCc1c(F)ccc2cc(O)cc(N3CCc4c(nc(OC[C@@]56CCCN5C[C@H](F)C6)nc4N4CCCn5nc(C(=O)N(C)CCOC)cc5C4)C3)c12 [Example 382] , report its measured inhibition at 0.01 µM.
99%

Given the entry CCNC(=O)c1nn2c(c1C)CN(c1nc(OC[C@@]34CCCN3C[C@H](F)C4)nc3c1CCN(c1cc(O)cc4ccc(F)c(CC)c14)C3)CCC2 [Example 379] , report its measured inhibition at 0.01 µM.
98%

====

study_target: KRas G12R (Homo sapiens, UniProt P01116, G12R)
assay_details: biochemical
measurement_conditions: Binding to KRas (IC50 nM) G12R, TR-FRET displacement, KRas G12R
parameter_measured: IC50 (nM)
Kindly provide the numeric value in nM only, without the unit symbol.

Given the entry CCc1c(F)ccc2cccc(N3CCc4c(nc(OC[C@@]56CCCN5C[C@H](F)C6)nc4N4CCCn5nc(C(=O)N(C)C)cc5C4)C3)c12 , report its measured IC50.
6

Given the entry CCc1c(F)ccc2cc(O)cc(N3CCc4c(nc(OC[C@@]56CCCN5C[C@H](F)C6)nc4NCc4cc(C(=O)N(C)C)nn4C)C3)c12 , report its measured IC50.
8

Given the entry CCc1c(F)ccc2cc(O)cc(N3CCc4c(nc(OC[C@@]56CCCN5C[C@H](F)C6)nc4N4CCCn5nc(C(=O)N6C7CCCC6CC7)cc5C4)C3)c12 , report its measured IC50.
2

Given the entry CCc1c(F)ccc2cc(O)cc(N3CCc4c(nc(OC[C@@]56CCCN5C[C@H](F)C6)nc4NCC4CC(=O)NC4=O)C3)c12 (stereo partly drawn) , report its measured IC50.
11
